Provide the recorded IC50 for the entries that follow.
- SUBJECT_OF_TEST: mutant B-RAF (Homo sapiens, UniProt P15056, V600E)
- Construct: purchased Upstate (Charlottesville, Va.)
- Sequence (P15056 whole entry V600E): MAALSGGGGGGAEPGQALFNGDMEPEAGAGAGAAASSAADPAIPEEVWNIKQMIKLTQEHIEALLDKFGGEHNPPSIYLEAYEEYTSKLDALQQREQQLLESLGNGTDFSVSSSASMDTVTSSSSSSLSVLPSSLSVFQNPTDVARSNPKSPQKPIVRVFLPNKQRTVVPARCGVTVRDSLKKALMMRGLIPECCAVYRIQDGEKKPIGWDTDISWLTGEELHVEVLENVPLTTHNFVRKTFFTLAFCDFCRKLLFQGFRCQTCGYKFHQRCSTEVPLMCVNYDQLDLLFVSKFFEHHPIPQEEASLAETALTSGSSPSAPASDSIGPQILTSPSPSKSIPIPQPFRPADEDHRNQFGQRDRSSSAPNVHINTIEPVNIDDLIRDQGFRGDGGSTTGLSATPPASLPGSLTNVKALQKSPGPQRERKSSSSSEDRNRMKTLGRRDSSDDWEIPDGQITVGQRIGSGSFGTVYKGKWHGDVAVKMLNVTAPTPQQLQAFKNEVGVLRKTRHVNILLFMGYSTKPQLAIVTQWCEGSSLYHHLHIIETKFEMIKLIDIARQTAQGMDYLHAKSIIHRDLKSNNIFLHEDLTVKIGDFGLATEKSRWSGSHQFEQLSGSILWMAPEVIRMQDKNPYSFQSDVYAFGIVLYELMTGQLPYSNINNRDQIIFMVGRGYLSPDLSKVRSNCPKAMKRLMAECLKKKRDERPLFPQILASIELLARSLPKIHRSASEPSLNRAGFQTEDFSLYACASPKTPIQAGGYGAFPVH
- ASSAY_DETAILS: RAF biochemical assay (MEK-1 phosphorylation, anti-phospho MEK1/2 detection)
- EXPERIMENTAL_PARAMETERS: read-out: Mutant B-RAF IC50
Field: numeric (nM). Do not append units.

Qu. Value wanted: IC50 (mutant B-RAF (Homo sapiens, UniProt P15056, V600E)) of entry `O=C(c1ccccc1)N1CCC(Nc2nccc(-c3c(-c4ccc(F)cc4)nc4occn34)n2)CC1`
Ans. 1010

Qu. Test system mutant B-RAF (Homo sapiens, UniProt P15056, V600E); read-out IC50; what value for `NC(=O)Oc1cccc(-c2nc3sccn3c2-c2ccnc(N[C@@H]3CCCN(S(=O)(=O)c4ccc(Cl)cc4)C3)n2)c1` ?
Ans. 7

Qu. Query IC50 on mutant B-RAF (Homo sapiens, UniProt P15056, V600E) for `COc1cccc(-c2nc3sccn3c2-c2ccnc(N[C@@H]3CCCN(C(=O)Nc4ccc(SC)cc4)C3)n2)c1`
Ans. 4000

Qu. What IC50 appears in the records for this molecule with mutant B-RAF (Homo sapiens, UniProt P15056, V600E)? `O=S(=O)(C1CC1)N1CCC(Nc2nccc(-c3c(-c4cccc(O)c4)nc4occn34)n2)CC1`
Ans. 46

Qu. What IC50 appears in the records for this molecule with mutant B-RAF (Homo sapiens, UniProt P15056, V600E)? `Cc1nc(S(=O)(=O)N2CCC(Nc3nccc(-c4c(-c5ccc(F)cc5)nc5occn45)n3)CC2)cn1C`
Ans. 931

Qu. Enter reported IC50 observed with mutant B-RAF (Homo sapiens, UniProt P15056, V600E) for `CC(=O)Nc1ccc(S(=O)(=O)N2CCC[C@@H](Nc3nccc(-c4c(-c5cccc(O)c5)nc5sccn45)n3)C2)cc1`
Ans. 1

Qu. Recall the recorded IC50 for `O=S(=O)(C1CC1)N1CCC(Nc2nccc(-c3c(-c4cccc(O)c4)nc4sccn34)n2)CC1` with mutant B-RAF (Homo sapiens, UniProt P15056, V600E) and state it.
Ans. 11

Qu. Form field - read-out: IC50; system: mutant B-RAF (Homo sapiens, UniProt P15056, V600E); submitted item: `Fc1ccc(-c2nc3sccn3c2-c2ccnc(NC3CCNCC3)n2)cc1`
Ans. 2360

Qu. Quick check: IC50 on mutant B-RAF (Homo sapiens, UniProt P15056, V600E), item `O=S(=O)(c1ccc(Cl)cc1)N1CCC[C@@H](Nc2nccc(-c3c(-c4ccc(F)cc4)nc4occn34)n2)C1` ?
Ans. 143

Qu. So what IC50 did `O=S(=O)(c1ccc(Cl)cc1)N1CCC[C@H](Nc2nccc(-c3c(-c4cccc(O)c4)nc4sccn34)n2)C1` get with mutant B-RAF (Homo sapiens, UniProt P15056, V600E)?
Ans. 953

Qu. Reported IC50 for mutant B-RAF (Homo sapiens, UniProt P15056, V600E), given `CS(=O)(=O)N1CCC[C@@H](Nc2nccc(-c3c(-c4cccc(O)c4)nc4sccn34)n2)C1` ?
Ans. 116

Qu. Notebook entry, mutant B-RAF (Homo sapiens, UniProt P15056, V600E) assay: IC50 of `CCCS(=O)(=O)N1CCC[C@@H](Nc2nccc(-c3c(-c4cccc(O)c4)nc4occn34)n2)C1` = ?
Ans. 330

Qu. Recall the recorded IC50 for `N#Cc1ccc(-c2nc3sccn3c2-c2ccnc(N[C@@H]3CCCN(S(=O)(=O)c4ccc(Cl)cc4)C3)n2)cc1` with mutant B-RAF (Homo sapiens, UniProt P15056, V600E) and state it.
Ans. 2470

Qu. Field: IC50 (mutant B-RAF (Homo sapiens, UniProt P15056, V600E)). Entry: `O=S(=O)(c1ccc(Cl)cc1)N1CCC[C@@H](Nc2nccc(-c3c(-c4cc(O)ccc4O)nc4sccn34)n2)C1`
Ans. 92

Qu. Could you share what IC50 was measured for `NC(=O)c1ccc(S(=O)(=O)N2CCC(Nc3nccc(-c4c(-c5cccc(O)c5)nc5occn45)n3)CC2)cc1` , tested on mutant B-RAF (Homo sapiens, UniProt P15056, V600E)?
Ans. 18

Qu. For the record `O=C(O)c1ccc(S(=O)(=O)N2CCC[C@@H](Nc3nccc(-c4c(-c5ccc(F)cc5)nc5occn45)n3)C2)cc1` , what value of IC50 is listed for mutant B-RAF (Homo sapiens, UniProt P15056, V600E)?
Ans. 576

Qu. Return IC50 measured with mutant B-RAF (Homo sapiens, UniProt P15056, V600E) given this molecule: `O=C(Nc1ccc(F)cc1)N1CCC[C@@H](Nc2nccc(-c3c(-c4cccc(O)c4)nc4sccn34)n2)C1`
Ans. 3260

Qu. What value of IC50 on mutant B-RAF (Homo sapiens, UniProt P15056, V600E) does `O=S(=O)(c1ccc(Cl)cc1)N1CCC[C@@H](Nc2nccc(-c3c(-c4ccc(F)cc4)nc4sccn34)n2)C1` have?
Ans. 36

Qu. Find IC50 (mutant B-RAF (Homo sapiens, UniProt P15056, V600E)) for the entry `COc1cccc(-c2nc3sccn3c2-c2ccnc(NC3CCN(S(=O)(=O)c4ccc(F)cc4)CC3)n2)c1`
Ans. 392

Qu. Query IC50 on mutant B-RAF (Homo sapiens, UniProt P15056, V600E) for `O=C(O)c1ccc(S(=O)(=O)N2CC[C@@H](Nc3nccc(-c4c(-c5cccc(O)c5)nc5sccn45)n3)C2)cc1`
Ans. 522

----------
- SUBJECT_OF_TEST: mutant B-RAF (Homo sapiens, UniProt P15056, V600E)
- Construct: purchased Upstate (Charlottesville, Va.)
- ASSAY_DETAILS: RAF biochemical assay (MEK-1 phosphorylation, anti-phospho MEK1/2 detection)
- EXPERIMENTAL_PARAMETERS: read-out: Mutant B-RAF IC50
Kindly state IC50 for each of the entries shown.
Give the value, in units of µM, as a plain number.

Qu. Find the recorded IC50 belonging to O=C(CCc1ccccc1)N1CCC(Nc2nccc(-c3c(-c4ccc(F)cc4)nc4occn34)n2)CC1 [Example 189] and report it.
Ans. 1.94

Qu. Which IC50 is listed for Cc1ccc(NC(=O)N2CCC(Nc3nccc(-c4c(-c5ccc(F)cc5)nc5occn45)n3)CC2)cc1 [Example 172] ?
Ans. 1.98

Qu. Entry under review: CC(C)CC(=O)N1CCC(Nc2nccc(-c3c(-c4ccc(F)cc4)nc4occn34)n2)CC1 [Example 180] . Reported IC50?
Ans. 2.04

----------
- SUBJECT_OF_TEST: mutant B-RAF (Homo sapiens, UniProt P15056, V600E)
- Construct: purchased Upstate (Charlottesville, Va.)
- ASSAY_DETAILS: RAF biochemical assay (MEK-1 phosphorylation, anti-phospho MEK1/2 detection)
- EXPERIMENTAL_PARAMETERS: read-out: Mutant B-RAF IC50
pIC50: −log10 of the molar value.
So I've got a bunch of molecules here, and I need their pIC50 values.

Qu. # input molecule: `O=S(=O)(c1ccc(Cl)cc1)N1CCC[C@@H](Nc2nccc(-c3c(-c4ccc(O)cc4)nc4sccn34)n2)C1` ; wanted: its pIC50
Ans. < 5.30

Qu. Recorded pIC50 of `CCCOC(=O)N1CCC(Nc2nccc(-c3c(-c4cccc(O)c4)nc4sccn34)n2)CC1` , please.
Ans. < 5.52

Qu. Could you tell me which pIC50 is on file for `Cc1ccc(-c2nc3scc(C)n3c2-c2ccnc(NC3CCNCC3)n2)cc1` ?
Ans. < 5.00

Qu. Can you share its pIC50? I mean this molecule: `COc1cccc(-c2nc3sccn3c2-c2ccnc(N[C@@H]3CCCN(C[C@@H](O)CO)C3)n2)c1`
Ans. < 5.52

Qu. May I ask what pIC50 has been recorded for `O=S(=O)(Cc1ccccc1)N1CCC[C@@H](Nc2nccc(-c3c(-c4cccc(O)c4)nc4occn34)n2)C1` ?
Ans. < 5.52

----------
- SUBJECT_OF_TEST: mutant B-RAF (Homo sapiens, UniProt P15056, V600E)
- Construct: purchased Upstate (Charlottesville, Va.)
- ASSAY_DETAILS: RAF biochemical assay (MEK-1 phosphorylation, anti-phospho MEK1/2 detection)
- EXPERIMENTAL_PARAMETERS: read-out: Mutant B-RAF IC50
pIC50: −log10 of the molar value.
For each record, write down the corresponding pIC50.

Qu. May I ask what pIC50 has been recorded for COc1cc([N+](=O)[O-])ccc1NC(=O)N1CCC[C@@H](Nc2nccc(-c3c(-c4ccc(F)cc4)nc4occn34)n2)C1 [Example 75] ?
Ans. < 5.00

Qu. pIC50 for CN(C)c1ccc(NC(=O)N2CCC(Nc3nccc(-c4c(-c5ccc(-c6ccccc6)cc5)nc5sccn45)n3)CC2)cc1 [Example 254] ?
Ans. < 5.52

Qu. I am curious: what pIC50 value has been reported for NC(=O)N1CCC(Nc2nccc(-c3c(-c4ccc(F)cc4)nc4occn34)n2)CC1 [Example 256] ?
Ans. < 6.00

Qu. Entry COc1ccc(-c2nc3sccn3c2-c2ccnc(NC3CCN(S(=O)(=O)c4ccc(Cl)cc4)CC3)n2)cc1 [Example 262] has what pIC50?
Ans. < 5.52

Qu. Tell me the measured pIC50 of COc1ccc(C(=O)N2CCC[C@@H](Nc3nccc(-c4c(-c5cccc(OC)c5)nc5sccn45)n3)C2)cc1 [Example 83] , please.
Ans. < 5.52
